# System: MDA-MB-231
# ASSAY DETAILS: normalised response (% of control), CellTox Green; higher = less cell death (100 = DMSO, 0 = benzethonium chloride kill control)
# RUN CONDITIONS: incubation time: 72 h
The reader will find reported normalised response values listed item by item below.
Hi! Could you send only the number? It should be in %, unit omitted.

Take a look at these entries with their results.
State its normalised response: Cc1ccc(NC(=O)c2ccc(CN3CCN(C)CC3)cc2)cc1Nc1nccc(-c2cccnc2)n1 [Imatinib] (10000 nM)
114

State its normalised response: Nc1nc(OCc2cc(Br)cs2)c2[nH]cnc2n1 [Lomeguatrib] (10000 nM)
112

// next entry
State its normalised response: CC[C@]1(O)C[C@H]2CN(CCc3c([nH]c4ccccc34)[C@@](C(=O)OC)(c3cc4c(cc3OC)N(C=O)[C@H]3[C@@](O)(C(=O)OC)[C@H](OC(C)=O)[C@]5(CC)C=CCN6CC[C@]43[C@@H]65)C2)C1 [Vincristine] (10 nM)
53.4
